Quick reference: Percent Control of the listed items.
# System: CAMK1
# condition-summary: Compound Concentration (nM):1000;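 note: KINOMEscan scanMAX binding as percent activity remaining versus control; lower means stronger binding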

COc1cc(N2CCN(C(C)C)CC2)ccc1Nc1nc(Nc2ccc(F)cc2C(=O)NC[C@@H](O)CO)c2cc[nH]c2n1 [GSK1392956A] :: 73%
C/C(Nc1ccc(S(N)(=O)=O)cc1)=C1/C(=O)Nc2ccccc21 [GW335962X] :: 52%
NS(=O)(=O)c1ccc(N/N=C2\C(=O)Nc3ccc(C(=O)NCc4ccncc4)cc32)cc1 [GW300657X] :: 85%
CCc1ccc(Oc2nccc(-c3c(-c4ccc(F)cc4)ncn3C3CCNCC3)n2)cc1 :: 90%
COc1cc2ncnc(Nc3ccc4c(cnn4Cc4ccccc4)c3)c2cc1OC.Cl [GW282449A] :: 100%
COc1ccccc1-c1cc(/C=C2\C(=O)Nc3ncc(Br)cc32)cc(Br)c1O [GW442130X] :: 100%
Cc1cc(O)cc(C)c1/C=C/c1cncc(C(N)=O)c1 [GW435821X] :: 91%

Now turn to the next compound.
I am curious: what Percent Control value has been reported for CN1CCN(C(=O)c2ccc(NC(=O)Nc3ccc(N(C)c4ccnc(Nc5ccc(CS(C)(=O)=O)cc5)n4)cc3)cc2)CC1.Cl [GW830263A] ?
100%

###

# Test system: MEK3
# Construct: gene MAP2K3
# condition-summary: Compound Concentration (nM):1000
Strictly below 80% in Percent Control: Satisfied. Otherwise: Not satisfied.

Before answering, review these 10 worked examples.
NS(=O)(=O)c1ccc(Nc2ncc(-c3ccccc3)o2)cc1 [GW572399X] :: Satisfied
Cl.c1ccc(Cc2nc3ccc(Nc4ncnc5ccccc45)cc3[nH]2)cc1 [GR269666A] :: Not satisfied
CCn1c(-c2nonc2N)nc2c(C#CC(C)(C)O)nc(OCCNC)cc21.Cl [GSK949675] :: Satisfied
C/C(Nc1ccc(S(N)(=O)=O)cc1)=C1/C(=O)Nc2ccccc21 [GW335962X] :: Satisfied
COc1cccc(-c2c[nH]c3c(N/N=C/c4ccncc4)ncnc23)c1 [GW814408X] :: Satisfied
COc1cc(C=NNc2ncnc3c2cnn3-c2ccccc2)ccc1O [GW513184X] :: Not satisfied
NS(=O)(=O)c1ccc(N/N=C2\C(=O)Nc3ccc(C(=O)NCCc4c[nH]cn4)cc32)cc1 [GW300660X] :: Satisfied
COc1cc(C)c(N(C)C(=O)CN(C)C)cc1Nc1nc(Nc2cccc(F)c2C(N)=O)c2cc[nH]c2n1 [GSK2219385] :: Not satisfied
COc1ccc2cc(-c3c(-c4ccncc4)nc(-c4ccc(S(C)(=O)=O)cc4C)n3C)ccc2c1 [SB-633825] :: Satisfied
COc1ccc2[nH]c3c4[nH]c5ccc(OC)cc5c4c4c(c3c2c1)C(=O)NC4=O [GW296115X] :: Satisfied

Say whether its Percent Control is strictly beneath 80%. Entry: CC1=C(C(=O)Nc2ccc3[nH]ncc3c2)C(c2ccc3ccccc3c2)CC(=O)N1 (stereo not shown) [GSK270822A]
Satisfied

Is the reported Percent Control for COc1ccccc1-c1cc(/C=C2\C(=O)Nc3ncc(Br)cc32)cc(Br)c1O [GW442130X] strictly below 80%?
Satisfied

Hello, is Percent Control of the following molecule strictly smaller than 80%? Nc1ncnc2occ(-c3ccc(NC(=O)Nc4cc(C(F)(F)F)ccc4F)cc3)c12 [GW770249X]
Not satisfied

Could you please tell me whether Percent Control recorded for Cl.O=C(Nc1ccc(Oc2ccc3[nH]c(NC(=O)c4ccccc4)nc3c2)cc1)Nc1cc(C(F)(F)F)ccc1F [GW709042A] is less than 80%?
Not satisfied

Does this molecule meet the criterion Percent Control < 80%? Cl.O=S1CCN(Cc2ccc(-c3ccc4ncnc(Nc5ccc(OCc6ccccc6)c(F)c5)c4c3)o2)CC1 [GW576924A]
Not satisfied

Field: below-cutoff. Rule: recorded Percent Control strictly less than 80%. Subject: C[C@@H](Oc1cc(-n2cnc3ccc(OC4CCN(C)CC4)cc32)sc1C(N)=O)c1ccccc1Cl [GSK579289A]
Not satisfied

Would you kindly verify if Percent Control of COc1cc(N2CCN(C(C)C)CC2)ccc1Nc1nc(Nc2ccc(F)cc2C(=O)NC[C@@H](O)CO)c2cc[nH]c2n1 [GSK1392956A] is strictly less than 80%?
Satisfied

# TODO verify Percent Control < 80% strictly for this molecule: CC1=C(C(=O)Nc2ccc3[nH]ncc3c2)C(c2ccc(Cl)c(Cl)c2)CC(=O)N1 (stereo not shown) [GSK299115A]
Satisfied

Would you kindly verify if Percent Control of COc1cc2ncn(-c3cc(O[C@H](C)c4ccccc4Cl)c(C(N)=O)s3)c2cc1OC [GSK237701A] is strictly less than 80%?
Not satisfied

# check: Percent Control < 80% for O=C1Nc2ccc(C(=O)c3ccco3)cc2C1=Cc1cc(Cl)c(O)c(Cl)c1 [GW406108X]
Satisfied

State whether 80% exceeds Percent Control recorded for COc1cc2ncnc(Nc3ccc4c(cnn4Cc4ccccc4)c3)c2cc1OC.Cl [GW282449A] .
Not satisfied

Answer whether the molecule CN(C)CCNC(=O)Nc1ccc(N(C)c2ccnc(Nc3ccc(CS(C)(=O)=O)cc3)n2)cc1.Cl [GW830900A] has Percent Control strictly less than 80%
Satisfied

Data origin, for the record: paper PMC7826789
